target_system: Furin (Homo sapiens)
Sequence (P09958 whole entry): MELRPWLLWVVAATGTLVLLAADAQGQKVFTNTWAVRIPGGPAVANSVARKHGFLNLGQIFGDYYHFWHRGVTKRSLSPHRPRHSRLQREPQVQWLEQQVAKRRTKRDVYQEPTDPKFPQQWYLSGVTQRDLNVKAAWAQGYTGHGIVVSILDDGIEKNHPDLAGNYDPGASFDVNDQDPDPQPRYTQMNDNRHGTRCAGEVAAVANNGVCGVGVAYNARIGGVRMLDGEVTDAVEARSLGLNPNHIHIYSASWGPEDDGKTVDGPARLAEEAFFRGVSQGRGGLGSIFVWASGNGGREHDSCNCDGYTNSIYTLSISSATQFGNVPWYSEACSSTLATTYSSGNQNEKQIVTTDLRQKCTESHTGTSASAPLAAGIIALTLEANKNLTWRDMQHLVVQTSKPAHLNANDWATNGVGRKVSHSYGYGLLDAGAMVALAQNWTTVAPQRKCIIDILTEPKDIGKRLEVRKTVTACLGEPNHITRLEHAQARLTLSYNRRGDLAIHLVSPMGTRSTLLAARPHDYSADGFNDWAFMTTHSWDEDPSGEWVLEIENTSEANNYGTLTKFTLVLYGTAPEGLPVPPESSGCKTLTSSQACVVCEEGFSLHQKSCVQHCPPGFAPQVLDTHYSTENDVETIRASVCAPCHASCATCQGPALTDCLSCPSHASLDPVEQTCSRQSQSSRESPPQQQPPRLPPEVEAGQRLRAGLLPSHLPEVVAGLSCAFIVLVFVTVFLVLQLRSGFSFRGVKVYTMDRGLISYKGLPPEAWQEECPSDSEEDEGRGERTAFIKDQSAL
assay_info: Inhibition of recombinant human furin expressed in drosophila S2 cells using pyrGlu-Arg-Thr-Lys-Arg-7-amido-4-methylcoumarin as substrate after 60 mins by spectrofluorometry method
Peptide text beside a SMILES is read from it. * marks the point of attachment. NH(4-amidinobenzyl) = N=C(N)c1ccc(CN*)cc1
readout_kind: Ki (nM)

>>> result_number("CC[C@H](C)[C@H](NC(=O)[C@H](CC(C)C)NC(=O)[C@H](CC(C)C)NC(=O)[C@H](CC(C)C)NC(C)=O)C(=O)N[C@@H](CCCNC(=N)N)C(=O)N[C@H](C(=O)N[C@@H](CCCCN)C(=O)NCc1ccc(C(=N)N)cc1)C(C)C (Ac-LLLIRVK-{NH(4-amidinobenzyl)})")
27
>>> result_number("CC(=O)N[C@@H](Cc1ccc(O)cc1)C(=O)N[C@@H](CC(C)C)C(=O)N[C@@H](CC(C)C)C(=O)N[C@@H](CC(C)C)C(=O)N[C@@H](CCCNC(=N)N)C(=O)N[C@H](C(=O)N[C@@H](CCCCN)C(=O)NCc1ccc(C(=N)N)cc1)C(C)C (Ac-YLLLRVK-{NH(4-amidinobenzyl)})")
4
>>> result_number("CC(=O)N1CCC[C@H]1C(=O)N[C@@H](CC(C)C)C(=O)N[C@@H](CC(C)C)C(=O)N[C@@H](CC(C)C)C(=O)N[C@@H](CCCNC(=N)N)C(=O)N[C@H](C(=O)N[C@@H](CCCCN)C(=O)NCc1ccc(C(=N)N)cc1)C(C)C (Ac-PLLLRVK-{NH(4-amidinobenzyl)})")
1.1
>>> result_number("CC(=O)N[C@@H](CC(C)C)C(=O)N[C@@H](CC(C)C)C(=O)N[C@@H](CC(C)C)C(=O)N[C@H](C(=O)N[C@@H](CCCNC(=N)N)C(=O)N[C@H](C(=O)N[C@@H](CCCCN)C(=O)NCc1ccc(C(=N)N)cc1)C(C)C)C(C)C (Ac-LLLVRVK-{NH(4-amidinobenzyl)})")
4
>>> result_number("CC(=O)N[C@@H](CC(C)C)C(=O)N[C@@H](Cc1ccc(O)cc1)C(=O)N[C@@H](CC(C)C)C(=O)N[C@@H](CC(C)C)C(=O)N[C@@H](CCCNC(=N)N)C(=O)N[C@H](C(=O)N[C@@H](CCCCN)C(=O)NCc1ccc(C(=N)N)cc1)C(C)C (Ac-LYLLRVK-{NH(4-amidinobenzyl)})")
3
>>> result_number("CC(=O)N[C@@H](CC(C)C)C(=O)N[C@@H](Cc1ccccc1)C(=O)N[C@@H](CC(C)C)C(=O)N[C@@H](CC(C)C)C(=O)N[C@@H](CCCNC(=N)N)C(=O)N[C@H](C(=O)N[C@@H](CCCCN)C(=O)NCc1ccc(C(=N)N)cc1)C(C)C (Ac-LFLLRVK-{NH(4-amidinobenzyl)})")
7
>>> result_number("CC(=O)N[C@@H](CC(C)C)C(=O)N[C@@H](CC(=O)O)C(=O)N[C@@H](CC(C)C)C(=O)N[C@@H](CC(C)C)C(=O)N[C@@H](CCCNC(=N)N)C(=O)N[C@H](C(=O)N[C@@H](CCCCN)C(=O)NCc1ccc(C(=N)N)cc1)C(C)C (Ac-LDLLRVK-{NH(4-amidinobenzyl)})")
50

---

Here the recorded pKi is given for each entry.
target_system: Proprotein convertase subtilisin/kexin type 6 (Homo sapiens, UniProt P29122)
Sequence (P29122 whole entry): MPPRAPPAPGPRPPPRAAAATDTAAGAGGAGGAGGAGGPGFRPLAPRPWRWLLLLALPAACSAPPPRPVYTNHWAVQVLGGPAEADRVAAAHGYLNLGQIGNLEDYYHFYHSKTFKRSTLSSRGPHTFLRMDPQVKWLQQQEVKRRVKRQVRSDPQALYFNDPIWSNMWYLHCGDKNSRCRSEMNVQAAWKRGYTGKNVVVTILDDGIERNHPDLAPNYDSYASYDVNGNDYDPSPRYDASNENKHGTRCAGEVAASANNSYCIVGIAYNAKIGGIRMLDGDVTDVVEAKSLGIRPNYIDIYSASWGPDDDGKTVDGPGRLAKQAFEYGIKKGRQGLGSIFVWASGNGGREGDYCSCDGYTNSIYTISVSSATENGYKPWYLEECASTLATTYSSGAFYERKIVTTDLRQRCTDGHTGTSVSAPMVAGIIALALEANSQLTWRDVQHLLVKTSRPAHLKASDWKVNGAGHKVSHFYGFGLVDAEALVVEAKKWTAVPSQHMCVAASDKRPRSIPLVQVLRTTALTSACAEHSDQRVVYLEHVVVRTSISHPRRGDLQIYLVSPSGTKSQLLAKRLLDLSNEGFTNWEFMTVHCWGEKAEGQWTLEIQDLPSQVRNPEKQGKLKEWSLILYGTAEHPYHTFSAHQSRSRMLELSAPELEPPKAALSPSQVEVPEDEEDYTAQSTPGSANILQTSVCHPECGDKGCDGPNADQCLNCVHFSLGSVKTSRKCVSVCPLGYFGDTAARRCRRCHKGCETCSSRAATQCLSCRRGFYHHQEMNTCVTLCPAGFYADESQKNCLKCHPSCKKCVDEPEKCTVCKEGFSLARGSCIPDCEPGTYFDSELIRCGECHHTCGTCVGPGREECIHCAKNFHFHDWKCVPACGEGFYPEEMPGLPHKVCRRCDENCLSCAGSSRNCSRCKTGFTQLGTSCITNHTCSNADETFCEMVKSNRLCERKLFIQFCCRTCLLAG
assay_info: Inhibition of recombinant human PACE4 expressed in drosophila S2 cells using pyrGlu-Arg-Thr-Lys-Arg-7-amido-4-methylcoumarin as substrate after 60 mins by spectrofluorometry method
pKi: −log10 of the molar value. Peptide text beside a SMILES is read from it. * marks the point of attachment. NH(4-amidinobenzyl) = N=C(N)c1ccc(CN*)cc1
readout_kind: pKi

>>> result_number("CC(=O)N[C@@H](CC(C)C)C(=O)N[C@@H](CCCCN)C(=O)N[C@@H](CC(C)C)C(=O)N[C@@H](CC(C)C)C(=O)N[C@@H](CCCNC(=N)N)C(=O)N[C@H](C(=O)N[C@@H](CCCCN)C(=O)NCc1ccc(C(=N)N)cc1)C(C)C (Ac-LKLLRVK-{NH(4-amidinobenzyl)})")
9.30
>>> result_number("CSCC[C@H](NC(=O)[C@H](CC(C)C)NC(=O)[C@H](CC(C)C)NC(C)=O)C(=O)N[C@@H](CC(C)C)C(=O)N[C@@H](CCCNC(=N)N)C(=O)N[C@H](C(=O)N[C@@H](CCCCN)C(=O)NCc1ccc(C(=N)N)cc1)C(C)C (Ac-LLMLRVK-{NH(4-amidinobenzyl)})")
7.55
>>> result_number("CC(=O)N[C@@H](CC(C)C)C(=O)N[C@@H](CC(C)C)C(=O)N[C@@H](CC(C)C)C(=O)N[C@@H](CO)C(=O)N[C@@H](CCCNC(=N)N)C(=O)N[C@H](C(=O)N[C@@H](CCCCN)C(=O)NCc1ccc(C(=N)N)cc1)C(C)C (Ac-LLLSRVK-{NH(4-amidinobenzyl)})")
8.70
>>> result_number("CC(=O)N[C@@H](CC(C)C)C(=O)N[C@@H](CC(C)C)C(=O)N[C@@H](CC(C)C)C(=O)N[C@@H](Cc1ccccc1)C(=O)N[C@@H](CCCNC(=N)N)C(=O)N[C@H](C(=O)N[C@@H](CCCCN)C(=O)NCc1ccc(C(=N)N)cc1)C(C)C (Ac-LLLFRVK-{NH(4-amidinobenzyl)})")
8.40
>>> result_number("CC(=O)N[C@@H](CC(C)C)C(=O)N[C@@H](CC(C)C)C(=O)N[C@H](C(=O)N[C@@H](CC(C)C)C(=O)N[C@@H](CCCNC(=N)N)C(=O)N[C@H](C(=O)N[C@@H](CCCCN)C(=O)NCc1ccc(C(=N)N)cc1)C(C)C)[C@@H](C)O (Ac-LLTLRVK-{NH(4-amidinobenzyl)})")
7.41
>>> result_number("CC(=O)N[C@@H](CC(C)C)C(=O)N[C@H](C(=O)N[C@@H](CC(C)C)C(=O)N[C@@H](CC(C)C)C(=O)N[C@@H](CCCNC(=N)N)C(=O)N[C@H](C(=O)N[C@@H](CCCCN)C(=O)NCc1ccc(C(=N)N)cc1)C(C)C)[C@@H](C)O (Ac-LTLLRVK-{NH(4-amidinobenzyl)})")
9.00
>>> result_number("CC(=O)N[C@@H](CCCCN)C(=O)N[C@@H](CC(C)C)C(=O)N[C@@H](CC(C)C)C(=O)N[C@@H](CC(C)C)C(=O)N[C@@H](CCCNC(=N)N)C(=O)N[C@H](C(=O)N[C@@H](CCCCN)C(=O)NCc1ccc(C(=N)N)cc1)C(C)C (Ac-KLLLRVK-{NH(4-amidinobenzyl)})")
9.52
>>> result_number("CC(=O)N[C@@H](CC(C)C)C(=O)N[C@@H](CC(=O)O)C(=O)N[C@@H](CC(C)C)C(=O)N[C@@H](CC(C)C)C(=O)N[C@@H](CCCNC(=N)N)C(=O)N[C@H](C(=O)N[C@@H](CCCCN)C(=O)NCc1ccc(C(=N)N)cc1)C(C)C (Ac-LDLLRVK-{NH(4-amidinobenzyl)})")
7.10
>>> result_number("CC(=O)N[C@@H](CC(C)C)C(=O)N[C@@H](CC(C)C)C(=O)N[C@@H](CC(C)C)C(=O)N[C@@H](Cc1cnc[nH]1)C(=O)N[C@@H](CCCNC(=N)N)C(=O)N[C@H](C(=O)N[C@@H](CCCCN)C(=O)NCc1ccc(C(=N)N)cc1)C(C)C (Ac-LLLHRVK-{NH(4-amidinobenzyl)})")
9.40

The origin of these recorded values is ChEMBL document CHEMBL4049407.
